From: the supplement of paper PMC7411054

test system: HepG2-TUBA1B-RELA; assay: phenotypically active (imaging signature differs from DMSO and reproducible) at any of 0.3-9 uM (binary (1 = active, 0 = inactive)); higher = active; conditions: treatment time: 24 h
Counter-ions that a name gives are not always drawn.
// allowed return values: yes (1) for active, no (0) for inactive

Past entries and their recorded results:
Please share the test call associated with `C/C(=C/C(=O)Nc1ccccc1C(=O)O)c1ccc2ccccc2c1` . no (0)

Kindly provide the recorded test outcome for the following compound: `CC[C@H](C)[C@H](NC(=O)OCc1ccccc1)C(=O)N[C@@H](CCC(=O)OC(C)(C)C)C(=O)N[C@@H](C)C(=O)N[C@H](C=O)CC(C)C` yes (1)

Name the outcome recorded for `N[C@@H](CSC(c1ccccc1)(c1ccccc1)c1ccccc1)C(=O)O` in the assay. no (0)

What classification did `Nc1ccc(-c2ccc3ncc4ccc(=O)n(-c5cccc(C(F)(F)F)c5)c4c3c2)cn1` end up with in this test? yes (1)

What call does the record list for Cc1ccc(C(=O)Oc2ccc(C(O)CNC(C)(C)C)cc2OC(=O)c2ccc(C)cc2)cc1 (configuration not stated) ? no (0)

Query: recorded result category for O=C(Nc1cccc(Cl)c1)Nc1ncc(CCNc2ncnc3ccsc23)s1 [SNS 314 mesylate] in this test yes (1)

Per the assay record, what outcome was assigned to CNC[C@H](O)c1ccc(O)c(O)c1 [epinephrine] ? no (0)

Lab log entry: CC(C(=O)O)c1cccc(C(=O)c2ccccc2)c1 (configuration not stated) — outcome as called in the assay? no (0)

***
Dear colleague, could you share the recorded outcome for `CCCCCCOc1cc2c(cc1N(C)c1ncc(C(=O)O)cn1)C(C)(C)CCC2(C)C` when you have a moment? no (0)

Look up the recorded call for C[C@@H]1C[C@H]2[C@@H]3C[C@H](F)C4=CC(=O)C=C[C@]4(C)[C@@]3(F)[C@@H](O)C[C@]2(C)[C@@]1(O)C(=O)COC(=O)C(C)(C)C [flumethasone pivalate] in this test. no (0)

For `COCc1c(C(C)C)nc(C(C)C)c(/C=C/[C@@H](O)C[C@@H](O)CC(=O)O)c1-c1ccc(F)cc1` , what call appears in the results of this test? yes (1)

Recorded test call requested for NS(=O)(=O)c1cc2c(cc1Cl)NC(C(Cl)Cl)NS2(=O)=O (configuration not stated) [trichlormethiazide] no (0)

Outcome? `CN1CCC(=C2c3ccccc3CC(=O)c3sccc32)CC1` yes (1)

Which outcome was entered for the compound `COc1c2c(cc3oc(CO)cc(=O)c13)O[C@@H](C(C)(C)O)C2` in this test? no (0)

Could you check what this test reported for `NCCCC[C@H](N[C@@H](CCc1ccccc1)C(=O)O)C(=O)N1CCC[C@H]1C(=O)O` ? no (0)

// return assay outcome for `Cc1ccc(-c2csc3ncnc(SCCC(=O)O)c23)cc1` no (0)

Could you please tell me the result logged for CNCCC(Oc1ccc(C(F)(F)F)cc1)c1ccccc1 (configuration not stated) in this assay? yes (1)

###

tested on: A549-ACTB-RAB5A; assay: lowest phenotypically active concentration; higher = less potent; details: treatment time: 24 h
property.label: lowest phenotypically active concentration (µM)
Lab book: enter the figure in µM, no units written.

Some solved cases for reference:
Lab note: need lowest phenotypically active concentration for `Nc1ncnc2[nH]nc(Nc3ccc(F)cc3)c12` on A549-ACTB-RAB5A, anyone have it? 9

What reported lowest phenotypically active concentration corresponds to `Nc1ccc(-c2cccc3c(=O)cc(N4CCOCC4)oc23)cc1` on A549-ACTB-RAB5A? 3

Which measured lowest phenotypically active concentration belongs to CNC(=O)c1cc(Oc2ccc(NC(=O)Nc3ccc(Cl)c(C(F)(F)F)c3)c(F)c2)ccn1 [regorafenib] , tested on A549-ACTB-RAB5A? 9

For A549-ACTB-RAB5A, provide lowest phenotypically active concentration of `O=C(Nc1ccccc1)c1cc([N+](=O)[O-])ccc1Cl` please. 9

# get_value(readout= lowest phenotypically active concentration, system= A549-ACTB-RAB5A) for Cc1nnc(-c2ccc3occ(-c4ccc(S(C)=O)cc4)c3c2)o1 (centres undefined) 9

Others:
Form field: lowest phenotypically active concentration recorded for `COc1cc2nc(-c3cc(F)ccc3O)nc(N[C@@H]3CNC[C@H]3C(C)(C)O)c2cc1OC` with A549-ACTB-RAB5A (enter value) 3

Request: lowest phenotypically active concentration, test system A549-ACTB-RAB5A, entry `CCn1c(=O)n([C@H]2CCCN(c3nccc(-c4cc5ccccc5o4)n3)C2)c2ccccc21` 3
